Values were extracted from patent US20200079876A1.

- assayed-target: T1, Pro-C1s
- T1 construct: also called purified pro-C1s protein
- T1 chain: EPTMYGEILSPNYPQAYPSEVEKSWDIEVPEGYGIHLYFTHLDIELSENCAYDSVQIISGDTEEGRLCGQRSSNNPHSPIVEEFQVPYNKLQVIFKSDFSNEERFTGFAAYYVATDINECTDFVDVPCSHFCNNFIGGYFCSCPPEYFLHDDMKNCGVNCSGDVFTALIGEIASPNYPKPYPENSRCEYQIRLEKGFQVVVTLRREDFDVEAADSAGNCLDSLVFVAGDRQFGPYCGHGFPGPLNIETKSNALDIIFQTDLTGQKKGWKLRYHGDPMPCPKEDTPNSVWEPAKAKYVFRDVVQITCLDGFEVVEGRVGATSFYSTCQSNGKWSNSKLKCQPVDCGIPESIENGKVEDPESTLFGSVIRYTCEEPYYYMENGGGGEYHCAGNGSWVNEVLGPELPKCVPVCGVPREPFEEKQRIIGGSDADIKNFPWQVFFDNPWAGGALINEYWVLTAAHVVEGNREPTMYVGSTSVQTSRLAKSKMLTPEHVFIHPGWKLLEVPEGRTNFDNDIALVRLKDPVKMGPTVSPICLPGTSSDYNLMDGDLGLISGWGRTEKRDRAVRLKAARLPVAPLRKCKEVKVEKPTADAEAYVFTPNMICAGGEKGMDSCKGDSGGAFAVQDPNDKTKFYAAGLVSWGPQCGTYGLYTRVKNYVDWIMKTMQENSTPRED
- experiment: bio-layer interferometry (BLI), kinetic analysis

binder: antibody IPN-M3 (antibody, V domains shown, Mouse monoclonal antibody (NZBW hybridoma); Same VL and VH as IPN-M1 and IPN-M13) VH: EVQLQQSGAELVRPGASVKLSCTASGFNIKDDYIHWVKQRPEQGLEWIGRIDPADDHTKYAPKFQDKATMTADTSSNTACLQLNSLTSEDTAVYYCAIYGSGWAWFPYWGQGTLVSVSA VL: DIVLTQSTDYLAVSLGQRATISCKASQSVDYDGDSYMNWYQQKPGQPPKLLIYAASNLESGIPARFSGSGSGTDFTLNIHPVEEEDAATYYCQQSNEDPWTFGGGTKLEIK
quantity-unit: s⁻¹
koff: 0.00041

binder: antibody IPN-M23 (antibody, V domains shown, Mouse monoclonal antibody (NZBW hybridoma)) VH: QVQLQQPGAELVRPGASVKLSCKVSGYTFTRYWMHWVKQRPGQGLEWIGEINPSNSDTDYNEEFKSKATLTVDKSSSTAYMHLSSLTSEDSAVYYCTIDDSVYGWFAYWGQGTLVTVSA VL: DIVMTQSPAIMFASPGERVTMTCSASSSISYMPWYPQKPGPSPKRWIYDTSKLASGVPARFSGSGFGTFYSLTISSMEAEDAAPYYCHQRSSFPPFGAGTKLELK
quantity-unit: s⁻¹
koff: 0.000347

binder: antibody IPN-M13 (antibody, V domains shown, Mouse monoclonal antibody (NZBW hybridoma); Same VL and VH as IPN-M1 and IPN-M3) VH: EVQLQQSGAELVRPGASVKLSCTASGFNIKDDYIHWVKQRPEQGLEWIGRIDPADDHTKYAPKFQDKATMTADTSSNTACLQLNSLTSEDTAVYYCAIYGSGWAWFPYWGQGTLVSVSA VL: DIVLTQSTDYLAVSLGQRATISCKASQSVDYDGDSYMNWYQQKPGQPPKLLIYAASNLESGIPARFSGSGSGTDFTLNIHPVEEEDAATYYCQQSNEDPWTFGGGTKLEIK
quantity-unit: s⁻¹
koff: 0.000258

binder: antibody IPN-M10 (antibody, V domains shown, Mouse monoclonal antibody (NZBW hybridoma)) VH: QVQLQQPGAELVRPGASVKLSCKVSGYTFTRYWMHWVKQRPGQGLEWIGEINPSNSDTDYNEEFKSKATLTVDKSSSTAYMHLSSLTSEDSAVYYCTIDDSVYGWFAYWGQGTLVTVSA VL: DIVITQSPAIMSASPGERVTMTCSASSSISYMHWYHQKPGTSPKRWIYDTSKLASGVPARFSGSGSGTSYSLTISSMEAEDAATYYCHQRSSFPTFGAGTKLELK
quantity-unit: s⁻¹
koff: 0.000339
